So I've got a bunch of compounds here, and I need their IC50 values.
# system-under-test: Integrin alpha-4/beta-1 (Homo sapiens, UniProt P05556+P13612)
# Sequence (P05556 21-798 limits assumed, change not shown): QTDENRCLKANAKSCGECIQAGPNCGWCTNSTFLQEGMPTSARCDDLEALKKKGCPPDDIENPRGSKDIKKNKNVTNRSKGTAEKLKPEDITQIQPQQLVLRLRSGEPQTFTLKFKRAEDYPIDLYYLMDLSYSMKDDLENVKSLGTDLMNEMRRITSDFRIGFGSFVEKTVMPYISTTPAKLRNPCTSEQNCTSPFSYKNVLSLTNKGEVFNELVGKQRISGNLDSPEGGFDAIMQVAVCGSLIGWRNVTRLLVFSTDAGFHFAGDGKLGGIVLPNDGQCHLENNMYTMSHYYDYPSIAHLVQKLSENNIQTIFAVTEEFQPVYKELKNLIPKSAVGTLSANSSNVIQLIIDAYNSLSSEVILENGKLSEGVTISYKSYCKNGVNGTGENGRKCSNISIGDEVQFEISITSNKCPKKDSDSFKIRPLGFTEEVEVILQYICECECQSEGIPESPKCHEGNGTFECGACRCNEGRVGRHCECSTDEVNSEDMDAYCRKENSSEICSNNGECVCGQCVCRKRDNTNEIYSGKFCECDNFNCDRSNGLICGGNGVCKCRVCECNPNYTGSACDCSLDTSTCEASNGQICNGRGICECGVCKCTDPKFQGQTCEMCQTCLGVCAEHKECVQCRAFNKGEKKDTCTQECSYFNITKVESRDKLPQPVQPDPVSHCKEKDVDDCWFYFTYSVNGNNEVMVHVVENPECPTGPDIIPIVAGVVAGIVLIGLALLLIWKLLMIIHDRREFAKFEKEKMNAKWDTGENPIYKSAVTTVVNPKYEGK
# Sequence (P13612 34-1032 limits assumed, change not shown): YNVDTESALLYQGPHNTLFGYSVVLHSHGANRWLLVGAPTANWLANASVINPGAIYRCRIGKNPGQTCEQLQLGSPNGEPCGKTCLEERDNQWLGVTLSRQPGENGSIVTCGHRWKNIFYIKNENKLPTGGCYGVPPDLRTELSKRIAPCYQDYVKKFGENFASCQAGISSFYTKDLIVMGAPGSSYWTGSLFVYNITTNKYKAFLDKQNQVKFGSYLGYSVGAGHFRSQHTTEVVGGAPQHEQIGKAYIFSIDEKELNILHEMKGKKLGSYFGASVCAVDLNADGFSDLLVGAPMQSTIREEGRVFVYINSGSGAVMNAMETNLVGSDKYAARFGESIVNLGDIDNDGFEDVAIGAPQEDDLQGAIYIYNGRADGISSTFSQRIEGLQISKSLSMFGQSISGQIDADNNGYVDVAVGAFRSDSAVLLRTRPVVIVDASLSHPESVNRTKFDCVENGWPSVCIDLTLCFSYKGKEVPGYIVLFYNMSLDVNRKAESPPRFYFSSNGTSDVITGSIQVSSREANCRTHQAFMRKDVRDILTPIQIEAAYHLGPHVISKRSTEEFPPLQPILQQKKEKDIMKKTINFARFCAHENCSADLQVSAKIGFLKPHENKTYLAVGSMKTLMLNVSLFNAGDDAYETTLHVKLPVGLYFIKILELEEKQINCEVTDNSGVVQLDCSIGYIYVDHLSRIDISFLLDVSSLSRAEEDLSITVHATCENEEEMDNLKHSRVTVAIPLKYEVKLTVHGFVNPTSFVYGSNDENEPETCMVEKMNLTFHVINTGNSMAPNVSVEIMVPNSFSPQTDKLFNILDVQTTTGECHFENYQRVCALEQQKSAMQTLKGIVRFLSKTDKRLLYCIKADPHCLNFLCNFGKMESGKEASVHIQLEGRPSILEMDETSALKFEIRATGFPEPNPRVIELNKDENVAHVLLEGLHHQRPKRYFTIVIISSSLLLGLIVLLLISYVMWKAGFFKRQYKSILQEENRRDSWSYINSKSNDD
# procedure-details: Inhibition of alpha4-beta1 integrin connecting segment 1 (CS1) splice variant binding interaction
All answers are understood in µM, so give the number only.

# input # return IC50 of O=C(O)CCN1CCS[C@H](CC(=O)O)C(=O)N[C@@H](Cc2ccc(O)cc2)C1=O (system: Integrin alpha-4/beta-1 (Homo sapiens, UniProt P05556+P13612))
# output 5

# input # return IC50 of O=C(O)CCN1CCS[C@@H](CC(=O)O)C(=O)N[C@@H](Cc2ccc(O)cc2)C1=O (system: Integrin alpha-4/beta-1 (Homo sapiens, UniProt P05556+P13612))
# output 8
